- ASSAY_SUMMARY: In situ determination of apparent pKa using TNS fluorescence titration
Could you please report measured pKa for the items listed next?
Give your answer as a number; write no unit.

*Q* For the molecule `CCCCC/C=C\C/C=C\CCCCCCCCC1(CCCCCCCC/C=C\C/C=C\CCCCC)OCC(CN(C)C)CO1` , give its measured pKa value.
*A* 6.2

*Q* For the molecule CCCCC/C=C\C/C=C\CCCCCCCCC1(CCCCCCCC/C=C\C/C=C\CCCCC)OCC(CCCCN(C)C)O1 (stereo not shown) , give its measured pKa value.
*A* 6.8

*Q* For the molecule CCCCC/C=C\C/C=C\CCCCCCCCC1(CCCCCCCC/C=C\C/C=C\CCCCC)OCC(CCCN(C)C)O1 (stereo not shown) , give its measured pKa value.
*A* 6.8

*Q* For the molecule CCCCC/C=C\C/C=C\CCCCCCCCC1(CCCCCCCC/C=C\C/C=C\CCCCC)OCC(CN2CCN(C)CC2)O1 (stereo not shown) , give its measured pKa value.
*A* 6.2

*Q* For the molecule CCCCC/C=C\C/C=C\CCCCCCCCOCC(CN(C)C)OCCCCCCCC/C=C\C/C=C\CCCCC (stereo not shown) [DLinDMA, 1,2-Dilinoleyloxy-3-dimethylaminopropane, reference compound] , give its measured pKa value.
*A* 6.4

*Q* For the molecule CCCCC/C=C\C/C=C\CCCCCCCCC1(CCCCCCCC/C=C\C/C=C\CCCCC)OCC(CCN(C)C)O1 (stereo not shown) , give its measured pKa value.
*A* 6.4

*Q* For the molecule CCCCC/C=C\C/C=C\CCCCCCCCC1(CCCCCCCC/C=C\C/C=C\CCCCC)OCC(CN(C)C)O1 (racemic) , give its measured pKa value.
*A* 5.6

From: patent US10653780B2
